// data source = patent US11504441B2

Experiment: in vivo
Set-up: species or system mice
Settings: male, NODSCID 1L2RγKO, mouse, iv, total radioactivity, Heart uptake

{"Compound": "COc1ccc(CCCC(=O)NCC(=O)N[C@@H](CCCCNC(=O)CN2CCN(CC(=O)O)CCN(CC(=O)O)CCN(CC(=O)O)CC2)C(=O)NC[C@H]2CC[C@H](C(=O)N[C@@H](Cc3c4ccccc4cc4ccccc34)C(=O)NCCCC[C@H](NC(=O)N[C@@H](CCCC(=O)O)C(=O)O)C(=O)O)CC2)cc1 [177Lu-HTK03170, metal not drawn]", "tissue uptake at 120 h / %ID/g": 0.04}
{"Compound": "O=C(O)CCC[C@H](NC(=O)N[C@@H](CCCCNC(=O)[C@H](Cc1c2ccccc2cc2ccccc12)NC(=O)[C@H]1CC[C@H](CNC(=O)[C@H](CCCCNC(=O)CN2CCN(CC(=O)O)CCN(CC(=O)O)CCN(CC(=O)O)CC2)NC(=O)CNC(=O)CCCc2ccc(Cl)cc2)CC1)C(=O)O)C(=O)O [177Lu-HTK03153, metal not drawn]", "tissue uptake at 120 h / %ID/g": 0.32}
{"Compound": "COc1ccc(CCCC(=O)NCC(=O)N[C@@H](CCCCNC(=O)CN2CCN(CC(=O)O)CCN(CC(=O)O)CCN(CC(=O)O)CC2)C(=O)NC[C@H]2CC[C@H](C(=O)N[C@@H](Cc3c4ccccc4cc4ccccc34)C(=O)NCCCC[C@H](NC(=O)N[C@@H](COCC(=O)O)C(=O)O)C(=O)O)CC2)cc1 [177Lu-HTK04028, metal not drawn]", "tissue uptake at 120 h / %ID/g": 0.07}
{"Compound": "COc1ccc(CCCC(=O)NCC(=O)N[C@@H](CCCCNC(=O)CN2CCN(CC(=O)O)CCN(CC(=O)O)CCN(CC(=O)O)CC2)C(=O)NC[C@H]2CC[C@H](C(=O)N[C@@H](Cc3c4ccccc4cc4ccccc34)C(=O)NCCCC[C@H](NC(=O)N[C@@H](CSCC(=O)O)C(=O)O)C(=O)O)CC2)cc1 [177Lu-HTK04048, metal not drawn]", "tissue uptake at 120 h / %ID/g": 0.1}
{"Compound": "O=C(O)CCC[C@H](NC(=O)N[C@@H](CCCCNC(=O)[C@H](Cc1c2ccccc2cc2ccccc12)NC(=O)[C@H]1CC[C@H](CNC(=O)CN2CCN(CC(=O)O)CCN(CC(=O)O)CCN(CC(=O)O)CC2)CC1)C(=O)O)C(=O)O [177Lu-HTK03149, metal not drawn]", "tissue uptake at 120 h / %ID/g": 0.03}
